Entries and their IC50 values follow.
Test system: Total ATXN3 (tATXN3) protein
assay.details: Endogenous Total ATXN3 (tATXN3) Protein Assay (MSD immunoassay of cell lysates)
Assay type: cell-based
assay.context: average IC50, total ATXN3 protein in cell lysate after 48 h with compound (Table 1)

# compound, observed.property, observed
records = [
    ("Cc1c([C@@H]2OCCC[C@H]2N)sc2c(NCc3ccccc3)nc(Cl)nc12", "IC50", "> 1000 nM"),
    ("Cc1c([C@H]2CCC[C@@H]2N)sc2c(NCc3ccccc3)cc(Cl)nc12", "IC50", "300 to 1000 nM"),
    ("Cc1c([C@H]2CC=C(C(=O)O)C[C@@H]2N)sc2c(NCc3cccs3)cc(Cl)nc12", "IC50", "≤ 30 nM"),
    ("N[C@@H]1CC=CC[C@H]1c1c(I)c2nc(Cl)cc(NCc3cccs3)c2n1C(F)F", "IC50", "30 to 300 nM"),
    ("COc1ncccc1C#Cc1c([C@H]2CC=CC[C@@H]2N)sc2c(NCc3cccs3)cc(Cl)nc12", "IC50", "300 to 1000 nM"),
    ("N[C@@H]1CCCO[C@H]1c1c(Cl)c2nc(Cl)nc(NCc3cccs3)c2n1C(F)F", "IC50", "30 to 300 nM"),
    ("N[C@@H]1CC=CC[C@H]1c1sc2c(NCc3ccccc3)nc(Cl)nc2c1I", "IC50", "300 to 1000 nM"),
    ("N[C@@H]1CCCC[C@H]1c1sc2c(NCc3ccco3)nc(Cl)nc2c1Br", "IC50", "300 to 1000 nM"),
    ("N[C@@H]1CCCC[C@H]1c1c(Cl)c2nc(Cl)nc(NCc3ccccc3)c2n1C(F)F.N[C@H]1CCCC[C@@H]1c1c(Cl)c2nc(Cl)nc(NCc3ccccc3)c2n1C(F)F (mixture of isomers)", "IC50", "30 to 300 nM"),
    ("N[C@@H]1CC=CC[C@H]1c1sc2c(NCc3ccco3)cc(Cl)nc2c1I", "IC50", "30 to 300 nM"),
]

Inquiry: Which measured IC50 belongs to CC#CCNc1cc(Cl)nc2c(Br)c([C@@H]3CCCC[C@H]3N)sc12 , tested on Total ATXN3 (tATXN3) protein?
Reply text: 300 to 1000 nM

Inquiry: Which measured IC50 belongs to Cc1c([C@H]2CCCC[C@H]2N)sc2c(NCc3cccs3)cc(Cl)nc12 , tested on Total ATXN3 (tATXN3) protein?
Reply text: > 1000 nM

Inquiry: Which measured IC50 belongs to [2H]C1=C([2H])C([2H])([2H])[C@H](c2sc3c(NCc4cccs4)cc(Cl)nc3c2C)[C@@H](N)C1([2H])[2H] [Compound 261] , tested on Total ATXN3 (tATXN3) protein?
Reply text: 30 to 300 nM

Inquiry: Which measured IC50 belongs to N[C@H]1CCC[C@H]1c1cc2nc(Cl)cc(NCc3cccs3)c2s1 , tested on Total ATXN3 (tATXN3) protein?
Reply text: > 1000 nM

Inquiry: Which measured IC50 belongs to N[C@@H]1CCCC[C@H]1c1sc2c(NCc3cccs3)cc(Cl)nc2c1Cl (single isomer, unassigned) , tested on Total ATXN3 (tATXN3) protein?
Reply text: > 1000 nM
